Tgt: 5-HT6 receptor (Homo sapiens, UniProt P50406)
Construct: purchased PerkinElmer
Sequence (P50406 whole entry): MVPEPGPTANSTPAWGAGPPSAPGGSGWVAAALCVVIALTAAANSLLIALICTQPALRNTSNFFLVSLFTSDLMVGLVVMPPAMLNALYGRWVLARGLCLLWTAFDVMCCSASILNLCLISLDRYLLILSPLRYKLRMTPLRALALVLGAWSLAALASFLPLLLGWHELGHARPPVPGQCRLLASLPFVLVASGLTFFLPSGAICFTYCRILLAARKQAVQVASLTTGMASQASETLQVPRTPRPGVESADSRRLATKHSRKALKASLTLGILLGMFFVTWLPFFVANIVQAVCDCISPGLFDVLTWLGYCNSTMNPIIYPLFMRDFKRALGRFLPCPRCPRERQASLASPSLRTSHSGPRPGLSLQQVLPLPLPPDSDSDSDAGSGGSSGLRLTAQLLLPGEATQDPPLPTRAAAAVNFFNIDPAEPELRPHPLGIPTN
Experiment: Radioligand binding assay, serotoninergic 5-HT6 receptors;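 also: test compound at 1 µM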
Setup conditions: binding assay result in %, Table 5a
In this section we review reported inhibition at 1 µM values for a set of molecules.

Here is how some molecules turned out for inhibition at 1 µM.
1. Cc1cccc(S(=O)(=O)NC2CCN(CCOc3cccc4[nH]ccc34)C2)c1 (stereo not drawn)    41%
2. O=S(=O)(NCC1CN(CCOc2cccc3c2OCCO3)C1)c1cccc2ccccc12    14%
3. O=S(=O)(NCC1CCN(CCOc2cccc3ccccc23)C1)c1ccc2cc(Cl)ccc2c1 (stereo not drawn)    86%

Reported inhibition at 1 µM for O=S(=O)(NCC1CCN(CCOc2cccc3ccccc23)C1)c1cccc2ccccc12 (stereo not drawn) : what is it?
90%

Could you do the same for O=S(=O)(NC1CCN(CCOc2cccc3[nH]ccc23)C1)c1cccc2ccccc12 (stereo not drawn) , please?
54%

Do the same for CC1(C)Cc2cccc(OCCN3CCC(NS(=O)(=O)c4cccc(O)c4)C3)c2O1 (stereo not drawn) please
39%
